System: MS2 coat protein
protocol: apparent KD of MS2 coat protein; designed switch direction (-1 OFF switch, 1 ON switch): -1; higher = weaker reporter binding
condition-notes: Eterna round: R95; input ligand: none
endpoint-name: apparent KD of MS2 coat protein (nM)
Report the value in nM with no unit label.

1) GCUUUUCUUUUCCUUUCUUACAUGAGGAUCACCCAUGUUUCUUGUCGUGCUCGCGUUGUUCGUCUGUCUGUCUGUUG [salish99_TOv1_r3_081] (puzzle: Sensor v3, turn-off variant 1) ... 47.6

Noted for UAAUGCAGGUAAAGAUUCUACAUGAGGAUCACCCAUGUGCUCGUCUUAUAAAGUACUAUCACGAAAGUGAUAGUACA [Mat - Sensor v3 - turn-off var 1 - Eli Mod - D101] (puzzle: Sensor v3, turn-off variant 1) : its apparent KD of MS2 coat protein reads 24.8

---

System: MS2 coat protein
protocol: apparent KD of MS2 coat protein; designed switch direction (-1 OFF switch, 1 ON switch): -1; higher = weaker reporter binding
condition-notes: Eterna round: R95; input ligand: none
endpoint-name: apparent KD of MS2 coat protein (nM)
Report the value in nM with no unit label.

Illustrative cases are given below, each with its answer.
1) GACUAAAUUUUGUUUGGUUACAUGAGGAUCACCCAUGUUGGUCUAAGAACAUGUCUUUUGUACGCUUGUCUUAUAUA [JR_SV3TOV1_Sub068] (puzzle: Sensor v3, turn-off variant 1) ... 96.3
2) GGAAGUAGAAACCGAUCCUACAUGAGGAUCACCCAUGUAGCAAGACGUGCACGCGAAGCUCGUCAGACUACCAGAAU [salish99_TOv1_r3_010] (puzzle: Sensor v3, turn-off variant 1) ... 286

// assay MS2 coat protein, entry CUCUUGUCAGGAUAUCAACGCCGCCCACACAGGCGGCGAAAUGAGAAGGGACAUGAGGAUCACCCAUGUUAAAA [Tiaonbi] (puzzle: Exclusion 4) , apparent KD of MS2 coat protein value = 168

// assay MS2 coat protein, entry CGGGCAUGAGGAUAUCGAGGUUAGUACAUGAGGAUCACCCAUGUUAUCCAGGUGUCGGUUCGAGAAGGCAUGGCCG [LRO-Ex5-11] (puzzle: Exclusion 5) , apparent KD of MS2 coat protein value = 340

// assay MS2 coat protein, entry ACCUAACAUGAGGAUCACCCAUGUCAGGAUAUCCAAGCGAAAGCAAAAGCGAAAGCAAGGAGAAGGGACAGAGG [ChP 04-04-2015 #8] (puzzle: Exclusion 1) , apparent KD of MS2 coat protein value = 28.4

---

Test system: K4 kissing-loop RNA reporter;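 further: bound reporter read as fluorescence of individual clusters on recovered sequencing chips by microscopy, with normalized cluster intensities fitted with a binding model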
protocol: apparent KD of K4 kissing-loop reporter; higher = weaker reporter binding
condition-notes: Eterna round: R107; input ligand: FMN 200 uM
endpoint-name: apparent KD of K4 kissing-loop reporter (µM)
Report the value in µM with no unit label.

Illustrative cases are given below, each with its answer.
1. CUUUGAACAUGAGUGAUGUUCAUGUCCGAAGGAGCGUGCGAAAGCACAGGUAGGUCGCGGACGUGAGUGAUGUUCAUGUGAGCGA [KL-XArg-A11 #analogue] ... 0.196
2. UAUCUAUGCUCGGCCGCCACUAGGACCGGGAGGUAACUAGUGAUGUUAGUAUCUUCGGCCGCCACUAGGACCGGGAGUGUAGAUA [KL-SSTryp-B17 #DoubleAptamer] ... 0.115
3. GUAAGACCGGGACUCCAGUGAUGUUGGAGGCAGGAUAUCCAGUCGAGGAGAAGGGCCAGGGAUAUCGAGCUGCUCGGUUUGUAGU [Argeis] ... 0.0819
4. ACCCUACUCGGGCGGCUAUACAGUUAAGCUAAGGAUAUGUAUUCGUACAGAAGGUAGAAGAAGCCGAGUGAUGUUCGACACGCCC [theeternabot_sameState_KL_FMN_A_24] ... 0.557
5. CCGGAGGAAGUCGCUUUUCCUGUGGCAUAGAAGGAUAUCCAAUUAAGGAGAAGGUCUAUCUGCCUUAGUGAUGUUAGGAAGUAGA [theeternabot_sameState_KL_FMN_A_23] ... 0.172

// assay K4 kissing-loop RNA reporter, entry AGGGACUCUUCGGAGUCCCGGUUAAGGGAUACCAGUGAUGUUGGUCACCCUUGGCAGCCCAGAAACCAAGCCACCAAAGGUGGCA [Omei KL Theo A Exc A v2] , apparent KD of K4 kissing-loop reporter value = 0.15

// assay K4 kissing-loop RNA reporter, entry CGAGUGAUGUUCGUUCGUAUAUUUGGGUGACAGGAUAUGCGGAAACGCAGAAGGGUCGCCUUCGGGUUACCCGAAUUGGCGUUUU [FMN A Model 2] , apparent KD of K4 kissing-loop reporter value = 0.444

// assay K4 kissing-loop RNA reporter, entry UGUCAUUGGUCUGAUACCAGUUGAUAAACUGGAGUGAUGUUCCAAGACGAGAAACUCGACAACCCUUGGCAGCAGACCGAUGACU [TheoBS 16 #SwitchBubble 13 #StaticStem] , apparent KD of K4 kissing-loop reporter value = 0.44

// assay K4 kissing-loop RNA reporter, entry GAUUGAGGAAACUCGAUCUUAUAUCCUAGGCAGGAUAUGCGGAAACGCAGAAGGGCCACCUAGCAGUGAUGUUGCAAGCGAAAGC [Ex FMN A 5] , apparent KD of K4 kissing-loop reporter value = 0.203

// assay K4 kissing-loop RNA reporter, entry UUCAUCGUGGUUCGCGGGUGGUAUGAAAAGCGAGGACCGGUACGGCCGCCACUCGGUUCCGCUUGUUGAGUGAUGUUCAAUAUUU , apparent KD of K4 kissing-loop reporter value = 0.207

// assay K4 kissing-loop RNA reporter, entry AAGGUAAGUGCAUACAAAGUGAUGUUUUGUCGAGGACCGGUACGGCCGCCACUCGCCCAGUUAAGUGACCGACGUCAACGAAUAA [theeternabot_exclusion_KL_Trp_A_21] , apparent KD of K4 kissing-loop reporter value = 0.606

// assay K4 kissing-loop RNA reporter, entry GCGCGUCAUGUUGGCGGGAACUAAGCCGAUACCAGCCGGGAAACCGGCCCUUGGCAGCGGCGCGCCGGAGUGAUGUUCCGACAGA [#2 Exclusion - Theophylline A Attempt #1 (HarryS)] , apparent KD of K4 kissing-loop reporter value = 0.226
